# System: KM-20L2
# ASSAY INFO: NCI tumour cell line growth inhibition, 48 h
Active and inactive are the calls of the source. Cut-off read from the data, not from the text of the source: active = GI50 up to about 1.1 µM and inactive = higher.
MEASURED METRIC: GI50

O=C(O)CNS(=O)(=O)c1ccc(NC(=O)CI)cc1
23.1 µM (inactive)

Q: GI50 for Cc1ccc(/C=N/NS(=O)(=O)c2ccccc2)cc1C ?
Ans: > 100 µM (inactive)

Q: # GI50 lookup, item CN(C)CCCN1CCc2c([nH]c3ccccc23)C1c1cccnc1 (stereo unspecified)
Ans: > 100 µM (inactive)

Q: I have this molecule here, O=NN(CCCl)C(=O)N[C@H]1CC[C@@H](O)CC1 , and I need its recorded GI50.
Ans: > 100 µM (inactive)

Q: GI50 for CC(=O)N1CCN(C=S)CC1 ?
Ans: > 100 µM (inactive)

Q: Query (molecule): CCOC(=O)C1=C(C)N2CCCOC2(C)C(C(=O)OC)C1c1cccc([N+](=O)[O-])c1 (stereo unspecified) ; field requested: GI50
Ans: > 100 µM (inactive)

---

# Test system: K562
# ASSAY INFO: NCI tumour cell line growth inhibition, 48 h
Calls of active or inactive are those of the source. Cut-off read from the data, not from the text of the source: active = GI50 up to about 1.1 µM and inactive = higher.
Please answer using one outcome listed in t = active, f = inactive

Cn1c2ccccc2c(=S)c2cc(NC(=O)CCCCC(=O)Nc3ccc4c(c3)c(=S)c3ccccc3n4C)ccc21
f
CCOC(=O)c1c(CN2CCNCC2)nc2ccc(Cl)cc2c1-c1ccccc1
f
O=C1NC2C3CC(OCc4ccccc4)(OCc4ccccc4)C2OC3O1 (stereo unspecified)
f
Cc1cccc2ns[s+]c12
f
COc1cc2oc(-c3ccc4c(c3)OCO4)c(OC)c(=O)c2c(OC)c1O
f

Q: Could you please tell me the result logged for COc1ncnc2c1cnn2Cc1cn(CCCCO)nn1 in this assay?
Ans: f

Q: Name the outcome recorded for c1ccc2c(c1)OC(N1CCCC1)c1cnc(N3CCCC3)nc1-2 (stereo unspecified) in the assay.
Ans: f

Q: Would you mind telling me which call this test gave O=P1(c2ccccc2)c2ccccc2-c2ccccc21 ?
Ans: f

Q: Just curious, what result did Cc1ccc(/C=N/NS(=O)(=O)c2ccccc2)cc1C get here?
Ans: f

Q: Per the assay record, what outcome was assigned to N=C(N)NNC(=O)C(=O)O ?
Ans: f

Q: Name the outcome recorded for COc1cc(OC)c(/C=N\Nc2nc3ccccc3c(=O)n2-c2ccccc2)c(OC)c1 in the assay.
Ans: f

Q: Give the logged outcome of this assay for the following molecule: COc1ccc(C2=NC(CO)[C@H](c3ccccc3)O2)cc1OC (stereo partly specified)
Ans: f

Q: Assay result, entry O=C1C2c3[nH]c4ccccc4c3C3CCCCCCC3C2C(=O)N1c1ccccc1 (stereo unspecified) — outcome?
Ans: f

Q: What classification did O=C(c1cccc2ccccc12)N1CCC(C2CCN(C(=O)c3cccc4ccccc34)CC2)CC1 end up with in this test?
Ans: f

Q: Kindly provide the recorded test outcome for the following molecule: O=S(=O)(/C=C/C=C/[S+]([O-])c1ccccc1)c1ccccc1 (stereo unspecified)
Ans: t

Q: Any idea what this test logged for CC(=O)C(C(=O)c1ccc(C)cc1)[C@@H]1OC(C)(C)O[C@@H]1[C@H]1COC(C)(C)O1 (stereo partly specified) ?
Ans: f

Q: How did this test come out for O=C1[C@@H]2C(c3cccc([N+](=O)[O-])c3)=NO[C@@H]2C(=O)N1c1ccc(Cc2ccc(N3C(=O)[C@H]4C(c5cccc([N+](=O)[O-])c5)=NO[C@H]4C3=O)cc2)cc1 ?
Ans: f

---

# System: NCI-H23
# ASSAY INFO: NCI tumour cell line growth inhibition, 48 h
Active and inactive are the calls of the source. Rule as the data show it: active = GI50 up to about 1.1 µM and inactive = higher.
MEASURED METRIC: GI50

Example entries and their recorded answers appear below.
Cc1ccnc2[nH]c3ccccc3c(=O)c12
22.9 µM (inactive)
CCc1ccc2c(c1)/C(=C1/Nc3ccccc3/C1=N/O)C(=O)N2
5.18 µM (inactive)
COc1cc(C2SCC(=O)N2c2ccc(Oc3ccc(Cl)cc3)c(Cl)c2)cc(OC)c1OC (stereo unspecified)
32.8 µM (inactive)
CCC(C)OC(=O)C1C2CCC(O2)C1C(=O)O (stereo unspecified)
> 100 µM (inactive)
O=C1CCCC2=C1CC1=C(CCCC1=O)N2c1ccccc1C(=O)O
> 100 µM (inactive)

Now look at this one.
Q: Request the reported GI50 associated with Clc1ccc(C2=Nc3ccccc3SC(c3ccc(Cl)c(Cl)c3)C2)c(Cl)c1 (stereo unspecified)
Ans: 15.3 µM (inactive)

---

# System: NCI-H23
# ASSAY INFO: NCI tumour cell line growth inhibition, 48 h
Calls of active or inactive are those of the source. Rule as the data show it: active = GI50 up to about 1.1 µM and inactive = higher.
Documented GI50 across a set of compounds

Q: Using the record for CC(O)C(O)C(O)C(/C=N\Nc1ccccc1)=N/Nc1ccccc1 (stereo unspecified) , report its GI50.
Ans: 11.9 µM (inactive)

Q: Form field: reported GI50 of N#CC(C(=O)CCC(=O)Nc1ccc(Cl)c(Cl)c1)c1ccc(Cl)cc1 (stereo unspecified)
Ans: > 100 µM (inactive)

Q: Find the recorded GI50 belonging to O=c1c(O)c(-c2cc(O)c(O)c(O)c2)oc2cc(O)cc(O)c12 and report it.
Ans: 18.4 µM (inactive)

Q: Need GI50 of COC(=O)C1=C(C[S+]([O-])c2ccc([N+](=O)[O-])cc2[N+](=O)[O-])C2C=CC1C2 (stereo unspecified) , thanks.
Ans: 26.4 µM (inactive)

Q: For the compound shown here, CCOC(=O)C12CN(C34CC5CC(CC(C5)C3)C4)CC(C(=O)OCC)(C1=O)C(c1ccccc1)OC2c1ccccc1 (stereo unspecified) , give the reported GI50.
Ans: 47.4 µM (inactive)

Q: # lookup: GI50 of [N-]=[N+]=C(C(=O)OCC#CCOC(=O)C(=[N+]=[N-])S(=O)(=O)c1ccccc1)S(=O)(=O)c1ccccc1
Ans: > 10 µM (inactive)

Q: Using the record for CCOP(=O)(OCC)/C(C#N)=C/c1cccn1C(C)C , report its GI50.
Ans: > 100 µM (inactive)

Q: Suppose we examine the compound Cc1cc([N+](=O)[O-])c(C)c(Br)c1C ; what GI50 value has been reported?
Ans: > 100 µM (inactive)

Q: Would you kindly share the measured GI50 for CCOC(=O)c1ccc(C)c(/N=N/N(C)C)c1 ?
Ans: > 100 µM (inactive)

Q: Given the entry Cc1ccc(-c2cn3c(nc4ccccc43)c(/C=C/c3ccco3)n2)cc1 , report its measured GI50.
Ans: 37 µM (inactive)

Q: Entry under review: COc1cc(OC)c(/C=N\Nc2nc3ccccc3c(=O)n2-c2ccccc2)c(OC)c1 . Reported GI50?
Ans: 58.5 µM (inactive)

Q: What measured GI50 goes with CCCCCCCCCCCCCCCCSCC(COC)COP(=O)([O-])OCC[N+](C)(C)C (stereo unspecified) ?
Ans: 13.6 µM (inactive)

Q: Item O=[N+]([O-])c1ccc2nc3ccccc3cc2c1 has what recorded GI50?
Ans: 2.28 µM (inactive)

Q: Look at this compound and give its reported GI50. Cc1ccc2nc(-c3ccc(NC(=O)c4ccc(N)cc4)c(S(=O)(=O)O)c3)sc2c1
Ans: > 100 µM (inactive)

Q: Query: GI50; subject: Cc1cccc2ns[s+]c12
Ans: > 100 µM (inactive)

Q: Please report the recorded GI50 for COc1ccc2o/c(=N/c3ccccc3)c(C(N)=O)cc2c1 .
Ans: > 58.1 µM (inactive)

Q: What value of measured GI50 is listed for O=S(=O)(/C=C/C=C/[S+]([O-])c1ccccc1)c1ccccc1 (stereo unspecified) ?
Ans: 1.96 µM (inactive)

Q: Returns the measured GI50 for the input compound. Input: Cc1ccc2nc(Cl)c(/C=N/N3C(=O)/C(=C/Cc4ccco4)N=C3c3ccccc3)cc2c1
Ans: > 49.2 µM (inactive)

Q: Quick one: GI50 for O=C(CC1(O)C(=O)Nc2ccccc21)c1ccc(Cl)cc1Cl (stereo unspecified) ?
Ans: > 100 µM (inactive)

Q: Given C=CCNC(=O)NCCCCC(NC(C)=O)C(=O)NCc1ccccc1 (stereo unspecified) , state its recorded GI50.
Ans: > 100 µM (inactive)

Q: Recorded GI50 of COC(=O)/C=C\C(C#N)(C#N)/N=C/c1cccc(OC)c1 , please.
Ans: 6.9 µM (inactive)

---

# Test system: OVCAR-5
# ASSAY INFO: NCI tumour cell line growth inhibition, 48 h
The source made the active and inactive calls. Rule as the data show it: active = GI50 up to about 1.1 µM and inactive = higher.
// values below are reported GI50

Cc1ccc(-c2cn3c(nc4ccccc43)c(/C=C/c3ccco3)n2)cc1
> 100 µM (inactive)

Q: Please look up its GI50: CCOC(=O)c1cc(-n2nnc3ccccc32)cn1C
Ans: > 10 µM (inactive)

Q: Please report the recorded GI50 for COc1cc(OC)c(/C=N\Nc2nc3ccccc3c(=O)n2-c2ccccc2)c(OC)c1 .
Ans: 43.9 µM (inactive)
